The entries below pair molecules with IC50 values for TEC (Homo sapiens, UniProt P42680), as found in several publications.

CCCCS(=O)(=O)Nc1ccc(F)c(C(=O)c2c[nH]c3ncc(-c4cnn(C)c4)cc23)c1F ... ≤ 10000 nM

Please give IC50 for each item listed below.
1. CN(c1ncnc2[nH]ccc12)[C@@H]1CCCN(C(=O)CNc2cc(Cl)cc(Cl)c2)C1
2. C=CC(=O)N1CC[C@@H](Nc2n[nH]c3nccc(-c4cccc(-n5ccc6cc(C7CC7)cc(F)c6c5=O)c4CO)c23)C1
3. C=CC(=O)N1CC[C@]2(C1)C[C@H](n1c(NC(=O)c3cc(C)no3)nc3cc(CN4CCN(C)CC4)ccc31)C2

stdout:
100 to 999 nM
40 nM
43.9 nM
